Assay: GFP drop in mixed WT/humanized-ribosome E. coli culture – GFP/RFP fluorescence, OD600, single point, bacterial rRNA inhibitor project, primary screen (AID 720706)
Details: E. coli WT GFP vs humanized-ribosome RFP mutants, 24 h; measured here: RFP humanized mutant strains, DMSO median 0, no signal -100, concentration not given here
The whole screen tested about 350,000 compounds, of which about 5,500 (1.6%) were called active. Only a selection was taken, and actives are over-represented in it overall.
assayMetric: RFP signal change (%)
Please state the figure in %; there is no need to write the unit.

compound	RFP signal change [%]
COc1ccc2c3c(n(C)c2c1)[C@@H](CO)N(C(=O)c1cccnc1)CC31CCN(C(=O)c2cccnc2)CC1	-2.73

According to the records, this compound COc1ccc(NC(=O)CN(C)S(=O)(=O)c2ccccc2)cc1OC displays RFP signal change of 5.68

According to the records, this compound CCOC(=O)C1=C(c2ccccc2)NC(=S)NC1c1ccc(Cl)cc1 (stereo not given) displays RFP signal change of -0.819

According to the records, this compound CCN(c1cccc(C)c1)S(=O)(=O)c1ccc(-c2coc(C)n2)cc1 displays RFP signal change of -6.13

According to the records, this compound O=C(COC(=O)CCCSc1nc2ccccc2[nH]1)Nc1ccc(Oc2ccccc2)cc1 displays RFP signal change of 0.945

According to the records, this compound CN(Cc1ccccc1)C(=O)CSc1nc2ccccc2[nH]1 displays RFP signal change of -0.812

* * *

Assay: GFP drop in mixed WT/humanized-ribosome E. coli culture – GFP/RFP fluorescence, OD600, single point, bacterial rRNA inhibitor project, primary screen (AID 720706)
Conditions: E. coli WT GFP vs humanized-ribosome RFP mutants, 24 h; measured here: OD600 growth, DMSO median 0, no signal -100
The campaign covered roughly 350,000 compounds. About 5,500 (1.6%) were called active. This is one part of a sample in which actives are shown more often than they occur.
assayMetric: OD600 change (%)
Please state the figure in %; there is no need to write the unit.

Recorded OD600 change, per entry:
compound	resultUnits	OD600 change
Cc1cc(C(=O)Nc2ccc3c(c2)C(=O)N(C)[C@@H]2CC[C@H](CC(=O)NC4CCCC4)O[C@@H]2CO3)no1	%	5.25
C[C@@H]1CN([C@@H](C)CO)S(=O)(=O)c2ccc(-c3cccc(C(=O)N(C)C)c3)cc2O[C@@H]1CN(C)C(=O)Nc1ccccc1	%	-5.97
Cc1nc2nc[nH]n2c(=O)c1C/C=C/c1ccccc1	%	1.36
CC[C@]1(C(=O)OC)[C@H]2C(=O)N(Cc3ccccc3)C(=O)[C@H]2[C@H]2CN=C(SCc3ccc(C#N)cc3)N21	%	-6.29
COc1ccc(NC(=O)N(C)C[C@@H]2OCCCC[C@H](C)Oc3ccc(NS(=O)(=O)c4cn(C)cn4)cc3C(=O)N([C@@H](C)CO)C[C@@H]2C)cc1	%	-0.21
COC(=O)C1=C(C)N(Cc2ccc(C(F)(F)F)cc2)C(=NCc2ccc(C(F)(F)F)cc2)NC1c1cccc(Cl)c1 (stereo not drawn)	%	-8.48

According to the records, this compound O=C(C[C@@H]1CC[C@@H](NC(=O)C2CCOCC2)[C@H](CO)O1)NCC1CC1 displays OD600 change of 0.519

According to the records, this compound O=C(NCCS(=O)(=O)N1CCN(c2ccccc2)CC1)c1cc(=O)c2ccccc2o1 displays OD600 change of 2.38

According to the records, this compound COC(=O)C1=C(C)N(Cc2ccc(C(F)(F)F)cc2)C(=NCc2ccccc2)NC1c1ccccc1C(F)(F)F (stereo not drawn) displays OD600 change of -75.3

According to the records, this compound C[C@H](O)C#Cc1ccc([C@H]2[C@H](CO)N3CCCCN(C(=O)c4ccc(F)cc4)C[C@@H]23)cc1 displays OD600 change of 14.8

According to the records, this compound N#C[C@H]1[C@@H](c2ccc(C#CC3CCCC3)cc2)[C@H](CO)N1C(=O)Nc1ccc(F)cc1 displays OD600 change of -36.1

According to the records, this compound O=C(NCCS(=O)(=O)N1CCN(c2ccccc2)CC1)c1ccco1 displays OD600 change of -7.54

According to the records, this compound COc1cc(CN2CC3(CN(S(=O)(=O)c4cccs4)C3)c3c(n(C)c4cc(OC)ccc34)[C@H]2CO)cc(OC)c1 displays OD600 change of -5.95

According to the records, this compound O=c1oc(-c2ccccc2NS(=O)(=O)c2ccc(Cl)cc2)nc2ccccc12 displays OD600 change of -24.4

According to the records, this compound O=C(NCCS(=O)(=O)N1CCN(c2ccccc2F)CC1)c1ccc(Br)o1 displays OD600 change of -25.8

According to the records, this compound COCC(=O)Nc1ccc2c(c1)C(=O)N(C)[C@H]1CC[C@@H](CC(=O)NCc3cccc(F)c3)O[C@H]1CO2 displays OD600 change of 6.34

According to the records, this compound O=C(N/N=C/c1ccc(OCc2ccccc2)cc1)c1ccc(O)cc1 displays OD600 change of 6.25

According to the records, this compound C/C=C/c1ccc([C@@H]2[C@H](CO)N(CC3CCCC3)C23CN(C(=O)CC2CC2)C3)cc1 displays OD600 change of -40

According to the records, this compound COc1ccccc1C#Cc1ccc2c(c1)O[C@@H](CN(C)Cc1cncnc1)[C@H](C)CN([C@@H](C)CO)S2(=O)=O displays OD600 change of -13.6

According to the records, this compound O=C(Cc1cccs1)N/N=C/c1ccc(OCc2ccccc2)cc1 displays OD600 change of -2.65

According to the records, this compound COc1ccc(CN(C)C[C@@H]2Oc3ccc(NC(=O)NC(C)C)cc3C(=O)N([C@@H](C)CO)C[C@H]2C)cc1 displays OD600 change of 10.5

According to the records, this compound O=C(CC1CC1)N1[C@@H](CO)[C@@H](c2ccccc2)C12CN(S(=O)(=O)c1ccccc1)C2 displays OD600 change of 0.08

According to the records, this compound CCC(=O)N1CC(=O)N2[C@H](CO)[C@@H](c3ccc(-c4ccc(C(=O)N(C)C)cc4)cc3)[C@H]2C1 displays OD600 change of 2.18

According to the records, this compound CCOc1ccc(-c2cc(C(=O)N/N=C/c3ccc(O)cc3)c3ccccc3n2)cc1 displays OD600 change of 6.6

According to the records, this compound COC(=O)C[C@@H]1CC[C@@H]2[C@H](COc3ccc(NS(=O)(=O)c4ccccc4F)cc3C(=O)N2C)O1 displays OD600 change of 1.69

According to the records, this compound NC(=O)c1ccc(NC(=O)COC(=O)c2c3c(nc4ccccc24)/C(=C\c2ccc4c(c2)OCO4)CCC3)cc1 displays OD600 change of -19.8

According to the records, this compound O=C(C[C@H]1C=C[C@H](NC(=O)C2CCOCC2)[C@@H](CO)O1)NCC1CC1 displays OD600 change of 2.38

* * *

Quick list: GFP signal change (wild-type ribosome) per entry.
Assay: GFP drop in mixed WT/humanized-ribosome E. coli culture – GFP/RFP fluorescence, OD600, single point, bacterial rRNA inhibitor project, primary screen (AID 720706)
Conditions: E. coli WT GFP vs humanized-ribosome RFP mutants, 24 h; stronger effect = lower value, DMSO median 0, no signal -100
About 5,500 (1.6%) of roughly 350,000 compounds were called active. The sample holds actives, similar compounds and a random draw of the others, so the mix is not that of the screen.
Please state the figure in %; there is no need to write the unit.

Recorded GFP signal change (wild-type ribosome), per entry:
Cc1cc(C(=O)OCC(=O)N2c3ccccc3NC(=O)C2(C)C)c(C)n1-c1ccccc1 -9.02
C[C@@H]1CCCCO[C@@H](CN(C)C(=O)Nc2ccc(F)cc2)[C@H](C)CN([C@@H](C)CO)C(=O)c2cc(NS(C)(=O)=O)ccc2O1 -0.965
O=C(C[C@@H]1C[C@H]2c3cc(NS(=O)(=O)c4ccc(F)cc4)ccc3O[C@H]2[C@H](CO)O1)NC1CCCC1 -1.46
Cc1ccccc1NC(=O)CCOc1ccccc1 6.54
CO[C@@H]1CN(C)C(=O)c2cc(NC(=O)Nc3ccc4c(c3)OCO4)ccc2OC[C@@H](C)NC[C@@H]1C 4.25
C[C@H]1CCCCO[C@@H](CN(C)S(=O)(=O)c2ccc(Cl)cc2)[C@@H](C)CN([C@@H](C)CO)C(=O)c2cc(NS(=O)(=O)c3cn(C)cn3)ccc2O1 -1.49
CCCNC(=O)N(C)C[C@H]1Oc2ncc(-c3ccccc3F)cc2C(=O)N([C@@H](C)CO)C[C@H]1C -0.164
O=C(C[C@@H]1C[C@H]2c3cc(NS(=O)(=O)c4ccc(F)cc4)ccc3O[C@H]2[C@H](CO)O1)NCCc1ccccc1 0.771
CO[C@@H]1CN(C)C(=O)c2cc(NC(=O)C3CCCC3)ccc2OC[C@@H](C)N(C(=O)Nc2ccc(C(F)(F)F)cc2)C[C@H]1C -37.8
O=C(C[C@@H]1CC[C@@H]2[C@H](COC[C@H](O)CN2S(=O)(=O)c2ccc(F)cc2)O1)NCc1ccc(Cl)c(Cl)c1 -20.8

According to the records, this compound Nc1ccccc1Sc1cc(Cl)nnc1Cl displays GFP signal change (wild-type ribosome) of 2.47
